# Measurement protocol: Binding affinity to d(CGCAAATTTGCG)2 DNA (unknown origin) assessed as thermal stability by measuring change in melting temperature by UV-Vis spectrophotometry
So I've got a bunch of compounds here, and I need their ΔTm values.
Answers are plain numbers, in °C.

Each compound below has a reported value. Please supply its ΔTm.
1. CN1CCN(c2ccc3nc(-c4ccc5nc(-c6ccc(OCCCCOCc7cn(C[C@H]8O[C@@H](O[C@@H]9[C@@H](O)[C@H](N)C[C@H](N)[C@H]9O[C@H]9O[C@H](CN)[C@@H](O)[C@H](O)[C@H]9N)[C@H](O)[C@@H]8O[C@H]8OC(CN)[C@@H](O)[C@H](O)[C@H]8N)nn7)cc6)[nH]c5c4)[nH]c3c2)CC1 (stereo partly drawn)
2. CN1CCN(c2ccc3nc(-c4ccc5nc(-c6ccc(OCCCCCCCCCCOCc7cn(C[C@H]8O[C@@H](O[C@@H]9[C@@H](O)[C@H](N)C[C@H](N)[C@H]9O[C@H]9O[C@H](CN)[C@@H](O)[C@H](O)[C@H]9N)[C@H](O)[C@@H]8O[C@H]8OC(CN)[C@@H](O)[C@H](O)[C@H]8N)nn7)cc6)[nH]c5c4)[nH]c3c2)CC1 (stereo partly drawn)
3. CN1CCN(c2ccc3nc(-c4ccc5nc(-c6ccc(OCCCCCCCCc7cn(C[C@H]8O[C@@H](O[C@@H]9[C@@H](O)[C@H](N)C[C@H](N)[C@H]9O[C@H]9O[C@H](CN)[C@@H](O)[C@H](O)[C@H]9N)[C@H](O)[C@@H]8O[C@H]8OC(CN)[C@@H](O)[C@H](O)[C@H]8N)nn7)cc6)[nH]c5c4)[nH]c3c2)CC1 (stereo partly drawn)

a:
1. 24.6
2. 19
3. 13.2

====

# Measurement protocol: Inhibition of ethidium bromide binding to r(CGCAAAUUUGCG)2 RNA (unknown origin) at 1:1 ratio of ligand:RNA measured after 5 mins by fluorescent intercalator displacement assay relative to control
Measured property: inhibition

Study these solved cases before continuing.
CN1CCN(c2ccc3nc(-c4ccc5nc(-c6ccc(OCCCCCCOCc7cn(C[C@H]8O[C@@H](O[C@@H]9[C@@H](O)[C@H](N)C[C@H](N)[C@H]9O[C@H]9O[C@H](CN)[C@@H](O)[C@H](O)[C@H]9N)[C@H](O)[C@@H]8O[C@H]8OC(CN)[C@@H](O)[C@H](O)[C@H]8N)nn7)cc6)[nH]c5c4)[nH]c3c2)CC1 (some centres undefined) | 20.7 to 36.2%
CN1CCN(c2ccc3nc(-c4ccc5nc(-c6ccc(OCCCCOCc7cn(C[C@H]8O[C@@H](O[C@@H]9[C@@H](O)[C@H](N)C[C@H](N)[C@H]9O[C@H]9O[C@H](CN)[C@@H](O)[C@H](O)[C@H]9N)[C@H](O)[C@@H]8O[C@H]8OC(CN)[C@@H](O)[C@H](O)[C@H]8N)nn7)cc6)[nH]c5c4)[nH]c3c2)CC1 (some centres undefined) | 20.7 to 36.2%
NC[C@@H]1O[C@H](O[C@H]2[C@@H](O)[C@H](O[C@@H]3[C@@H](O)[C@H](N)C[C@H](N)[C@H]3O[C@H]3O[C@H](CN)[C@@H](O)[C@H](O)[C@H]3N)O[C@@H]2CO)[C@H](N)[C@@H](O)[C@@H]1O | 20.4%

Proceed to the following item.
q: Sample CN1CCN(c2ccc3nc(-c4ccc5nc(-c6ccc(OCCCCCCCCOCc7cn(C[C@H]8O[C@@H](O[C@@H]9[C@@H](O)[C@H](N)C[C@H](N)[C@H]9O[C@H]9O[C@H](CN)[C@@H](O)[C@H](O)[C@H]9N)[C@H](O)[C@@H]8O[C@H]8OC(CN)[C@@H](O)[C@H](O)[C@H]8N)nn7)cc6)[nH]c5c4)[nH]c3c2)CC1 (some centres undefined) — what was its inhibition?
a: 20.7 to 36.2%

Where do these numbers come from? They come from ChEMBL document CHEMBL3868633.
